- system_tested: monomeric N-terminal cynomolgus LTbR (ECD full length) hu IgG1 Fc-fusion kih HRYF avi biotinylated (P1AE2656) (cynomolgus, UniProt P0DOX5 223-449 = IgG part, biotinylated avi tag)
- test: direct ELISA
Assign pEC50 to each entry below.
One number for each entry, as −log10 of the molar value.

binder | result_value
P1AE9452 (antibody, human IgG1, kappa, L234A L235A, V domains shown, human IgG1 PG LALA; from transgenic rabbit immunization; also called LTBR (9452)) VH: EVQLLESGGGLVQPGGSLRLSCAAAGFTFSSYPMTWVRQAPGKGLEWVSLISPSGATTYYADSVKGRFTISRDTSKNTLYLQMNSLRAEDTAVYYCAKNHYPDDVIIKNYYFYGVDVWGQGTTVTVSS VL: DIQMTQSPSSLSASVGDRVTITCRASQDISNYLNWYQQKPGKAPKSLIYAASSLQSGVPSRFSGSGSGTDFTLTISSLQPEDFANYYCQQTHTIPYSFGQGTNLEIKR | 9.89
P1AF0079 (antibody, human IgG1, kappa, L234A L235A, V domains shown, human IgG1 PG LALA; from transgenic rabbit immunization; also called LTBR (0079)) VH: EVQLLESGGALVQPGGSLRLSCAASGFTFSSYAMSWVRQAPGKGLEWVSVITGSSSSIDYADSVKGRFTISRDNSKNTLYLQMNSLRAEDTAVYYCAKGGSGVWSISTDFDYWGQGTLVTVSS VL: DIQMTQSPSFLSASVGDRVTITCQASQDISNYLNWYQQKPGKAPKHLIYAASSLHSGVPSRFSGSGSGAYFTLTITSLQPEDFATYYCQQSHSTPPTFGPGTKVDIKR | 9.51

Req: Indicate the recorded pEC50 value for this binder: P1AF0064 (antibody, human IgG1, kappa, L234A L235A, V domains shown, human IgG1 PG LALA constant regions; V domains from rat immunization; also called LTBR (0064)) VH: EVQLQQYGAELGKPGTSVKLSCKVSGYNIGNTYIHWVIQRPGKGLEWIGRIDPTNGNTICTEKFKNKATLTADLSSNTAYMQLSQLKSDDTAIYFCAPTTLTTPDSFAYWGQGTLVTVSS VL: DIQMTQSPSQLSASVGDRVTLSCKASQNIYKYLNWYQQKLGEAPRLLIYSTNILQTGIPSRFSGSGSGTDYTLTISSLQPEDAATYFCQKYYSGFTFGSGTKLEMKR
Resp: 10.47
